Taken from patent US20240409645A1.

- study.system: T1, human IL-2Rβ (human, UniProt P14784 27-240, limits assumed)
- T1 construct: recombinant protein, coated or immobilised; also called hu IL-2R; IL-2R beta
- T1 sequence: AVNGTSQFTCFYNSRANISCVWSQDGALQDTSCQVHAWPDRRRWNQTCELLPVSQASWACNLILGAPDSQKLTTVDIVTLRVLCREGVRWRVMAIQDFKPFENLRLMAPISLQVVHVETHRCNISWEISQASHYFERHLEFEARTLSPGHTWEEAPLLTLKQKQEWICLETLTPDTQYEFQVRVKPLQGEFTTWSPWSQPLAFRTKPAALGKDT
- experimental.details: SPR, P.E. off-rate
So basically every entry gets a class from its koff, ranges being low = under 0.0002 s⁻¹, medium = from 0.0002 s⁻¹ up to 0.0006 s⁻¹, high = 0.0006 s⁻¹ and over

Place this binder in its band: FJ1427 P035MP03A12 (VHH, soluble VHH in periplasmic extract; also called 21-MP03A12; clone nr) VHH: EVQLVESGGGLVQAGGSLRLSCAASGRTFSINAMGWFRQAPGKEREFVAAISRSGGSTVYVDGVKGRFTISRDNAKNTVYLQMNSLEPEDTAVYYCAATMAVGWTTRWRTADFDSWGQGTQVTVSS
high

Place this binder in its band: FJ1427_P035MP02B09 (VHH, soluble VHH in periplasmic extract; also called clone nr) VHH: EVQLVESGGGLVQAGGSLRLSCAASGRTFSTTEMGWFRQAPGKEREFVAAITWTGRGTMYAESVEGRFTISRENAKNMVYLQMNSLKPEDTAIYYCAAARRGRAAVRSEGGYDFWGQGTQVTVSS
medium

Place this binder in its band: FJ1427_P035MP02B03 (VHH, soluble VHH in periplasmic extract; also called clone nr) VHH: QVQLVESGGGLVQTGGSLRLSCAASGSRFVSDFMGWYRQVPGKQRELVADMADGGSARYGDSVKGRFTILRDSGNSTAYLQMSSLKPEDTGVYYCKAGLWIAGRHFDYWGQGTQVTVSS
medium

Place this binder in its band: FJ1427_P035MP02A02 (VHH, soluble VHH in periplasmic extract; also called clone nr) VHH: QVQLVESGGGLVQPGGSLRLSCAASGFTFDNYAMTWVRQAPGKGLEWVSSITGAGRGTHYADSVKGRFTISRDNAKNTLYLQVNSLKPEDTAVYYCARYSSSTYYPTTPVRGTDYRGQGTQVTVSS
high

Place this binder in its band: FJ1427_P035MP02D03 (VHH, soluble VHH in periplasmic extract; also called clone nr) VHH: QVQLVESGGGLVQAGGPLRLSCAASGGTFSSYAMGWFRQAPGKEREFVAATTRGGGRTMYAVSTEGRFTCSRDNAKNTVYLLMNSLKPEDTAVYYCAAMTSYYSGTYYPDSSDFDIWGQGTQVTVSS
medium

Place this binder in its band: FJ1427_P035MP02B10 (VHH, soluble VHH in periplasmic extract; also called clone nr; 170) VHH: QVQLVESGGGLVEAGGSLRLSCAASGRAFNNFPMGWFRQAPGKEREFVAAITWISGSTLYADSVKGRFTISRDKSKNTVYLQMSGLKPEDTALYYCAAALKTITRGQHDYTYWGQGTQVTVSS
medium

Place this binder in its band: FJ1427_P035MP02E03 (VHH, soluble VHH in periplasmic extract; also called clone nr) VHH: EVQLVESGGGSVQTGGSLRLSCVVSGSHFISDVMGWYRQVPGKQRELVADMADGGSVKYGDSVKGRFTILRDSVKNTVTLQMSSLNPEDTGVYYCKAGLWITGRHFDYWGQGTQVTVTS
low

Place this binder in its band: FJ1427_P035MP02B02 (VHH, soluble VHH in periplasmic extract; also called clone nr) VHH: EVQLVESGGTLVQTGGSLRLSCVVSGSHFISDVMGWYRQVPGKQRELVADMADGGSAKYGDSVKGRFTIVRDSVKNTVYLQMSSLNPEDTGVYYCKAGLWIKGRHSDYWGQGTQVTVTS
low

Place this binder in its band: FJ1427_P035MP02B04 (VHH, soluble VHH in periplasmic extract; also called clone nr) VHH: EVQLVESGGGLVQAGGSLGLSCAASGGTFSSYAMGWFRQAPGKEREFVAATTRGGGRTMYAVSTEGRFTCSRDNAKNTVYLQMNSLKPKDTAIYYCAAMTSYYSGTYYPDSSDFDIWGQGTQVTVSS
medium

Place this binder in its band: FJ1427_P035MP02A11 (VHH, soluble VHH in periplasmic extract; also called clone nr) VHH: EVQLVESGGGLVQAGGSLRLSCAASGRTFSTTEMGWFRQAPGKEREFVAAITWTGRGTMYAESVEGRFTISRENAKNMVYLQMNSLKPEDTAIYYCAAARRGRAAVRSEGGYDFWGQGTQATVSS
medium

Place this binder in its band: FJ1427 P035MP02E06 (VHH, soluble VHH in periplasmic extract; also called 15-MP02E06; clone nr) VHH: QVQLVESGGGSVQPGGSLRLSCAASGFTFSNYAMSWVRQAPGKGLEWVASITGFGRGTDYADSVKGRFTISRDNAEDTLYLQMNSLKPEDTAVYYCAKYSSSTYYPPTPARGRDYRGQGTQVTVSS
high

Place this binder in its band: FJ1427_P035MP02C04 (VHH, soluble VHH in periplasmic extract; also called clone nr) VHH: QVQLVESGGGLVQPGGSLELSCAASGFTFSNYAMSWVRQAPGKGLEWVSSITGFGRGTDYADSVKGRFTISRDNDKNTLYLQMNSLKPEDTAVYYCARYSSSTYYPPTPARGRDYRGQGTQVTVSS
high

Place this binder in its band: FJ1427 P035MP02B07 (VHH, soluble VHH in periplasmic extract; also called clone nr) VHH: EVQLVESGGGLVEAGGSLRLSCAASGRAFNNFPMGWFRQAPGKEREFVAAITWISGSTLYADSVKGRFTISRDKSKNTVYLQMSGLKPEDTALYYCAAALKTITRGQHDYTYWGQGTQVTVSS
medium
